Form field: growth (one value per entry).
test system: M14 melanoma; assay: NCI-60 one-dose screen, 48 h (100 = growth as untreated, 0 = no growth, -100 = all killed); settings: 10 µM unless noted
About 83,000 compounds went through this panel and 20% of them were active in at least one assay; those are over-represented in the sample as a whole.
The answer is to be given in %; state only the numeric part.

query: Which value of growth has been reported for CCCCCN1C=C/C(=C\C(=O)N(C)c2cccc3ccccc23)c2ccccc21 in the records?
result: 102

query: Please give the result for CC(c1ccccc1)n1ccnc1CO (stereo not given) too.
result: 109

query: Please give the result for CC(C)CCSc1nc(NNC(N)=O)c(C#N)c(-c2ccccc2)n1 too.
result: 71.7

query: Please give the result for Cc1ccccc1C(c1ccccc1)c1ccccc1C too.
result: 80.3

query: Please give the result for CCCCCCCCCCCCCCCCCCOc1ccccc1N too.
result: 72.9

* * *

test system: HCT-15 colon; test: NCI-60 one-dose screen, 48 h; details: 10 µM unless noted
This is part of a sample that, as a whole, favours compounds with a hit. Of some 83,000 tested, about 20% had one in any assay. The source made the active and inactive calls. Rule for the calls: active = growth percent below 10; inactive = the rest.
Please answer using one outcome listed in t for active, f for inactive

Field: example entries. Status: answers known.
molecule	category-label
COc1cc(-c2cc(=O)oc3cc(O)ccc23)c(OC)c2c1OCO2	f
COc1ccc(C(=O)c2cc3c(N)c(C(=O)Nc4cccc(Cl)c4)sc3nc2C)cc1	f

query: Kindly provide the recorded test outcome for the following molecule: Clc1cc(Cl)cc(N2N=C(c3cccc(Nc4ccncc4)c3)CC2c2ccc3c(c2)OCO3)c1 (stereo not given)
result: t

query: Please give the result for O=C1c2ccccc2C(=O)c2c(NCCN=Cc3ccccc3O)cccc21 too.
result: f

query: Please give the result for CN1CCN(Cc2ccc(NC(=O)c3cncc(C#Cc4cnccc4C(F)(F)F)c3)cc2C(F)(F)F)CC1 too.
result: f

query: Please give the result for COc1cc2nc(-c3ccc(C(F)(F)F)cc3)cc(OCCN3CCCC3)c2cc1OC too.
result: f

query: Please give the result for c1ccc(-c2nn(-c3ccccc3)[n+](-c3cccc4ccccc34)n2)cc1 too.
result: f

query: Please give the result for CC(=O)c1cc2c(N)c(C(=O)Nc3cncc4ccccc34)sc2nc1C too.
result: f

query: Please give the result for C=Cc1cc[n+](CCCCCCCCCCCC)cc1 too.
result: f

query: Please give the result for CCC1(CC)NC(=O)c2c(c3ccc(Cl)c(Cl)c3n2C)C1C#N (stereo not given) too.
result: f

query: Please give the result for Cc1cc(NC(=O)c2cnc(N3CCN(CCOCCOCCOCCOCCC(=O)N[C@H](C(=O)N4C[C@H](O)C[C@H]4C(=O)N[C@@H](C)c4ccc(-c5scnc5C)cc4)C(C)(C)C)CC3)cn2)c2ncccc2c1 too.
result: f

query: Please give the result for O=C(CNCCO)Nc1ccc2ncnc(Nc3ccc(OCc4cccc(F)c4)c(Cl)c3)c2c1 too.
result: f

query: Please give the result for COc1cc(/C=N/NC(=O)c2ccccc2Nc2cccc(C(F)(F)F)c2)ccc1O too.
result: f

query: Please give the result for C=C(C)[C@@H]1CC[C@]2(C(=O)NCC(=O)OC)CC[C@]3(C)[C@H](CC[C@@H]4[C@@]5(C)Cc6c([nH]c7ccccc67)C(C)(C)[C@@H]5CC[C@]43C)[C@@H]12 too.
result: f

query: Please give the result for Cc1ccc(Nc2cc(=S)nc(N)[nH]2)cc1C too.
result: f

* * *

test system: SF-539 CNS; test: NCI-60 one-dose screen, 48 h (100 = growth as untreated, 0 = no growth, -100 = all killed); conditions: 10 µM unless noted
The panel holds about 83,000 compounds, 20% with a hit somewhere; the sample as a whole holds those more often.
readout: growth (%)
The answer is to be given in %; state only the numeric part.

For orientation, consider the following solved cases.
molecule	target-under-test	readout	test-result
COc1cccc2cc(-c3cc4ccccc4[nH]3)/c(=N/C(=S)Nc3ccc(C)cc3)oc12	SF-539 CNS	growth	45.7
COc1ccccc1/C=N/NC1=NC2C(N1)N(C)C(=O)N2C (centres undefined)	SF-539 CNS	growth	97.6
CCCCCCc1nc2nc(Cl)c(Cl)nc2[nH]1	SF-539 CNS	growth	65.3

Consider now this further molecule.
query: Which value of growth has been reported for Clc1nc(Cl)c2ncn(CCOCCn3cnc4c(Cl)nc(Cl)nc43)c2n1 in the records?
result: -89.9

* * *

tested on: UO-31 renal; assay: NCI-60 one-dose screen, 48 h (100 = growth as untreated, 0 = no growth, -100 = all killed); details: 10 µM unless noted
Compounds without any hit were thinned out: in the full panel of roughly 83,000, 20% have a hit.
Form field: growth (one value per entry).
The answer is to be given in %; state only the numeric part.

For orientation, consider the following solved cases.
compound	target-under-test	unit-tag	growth
CC1(c2ccccc2)NC(=O)N(CC(=O)Nc2cccc(I)c2)C1=O (stereo not drawn)	UO-31 renal	%	69.8
C=C(C)[C@@H]1CC[C@]2(C=O)CC[C@]3(C)[C@H](CC[C@@H]4[C@@]5(C)CCCNC(C)(C)[C@@H]5CC[C@]43C)[C@@H]12	UO-31 renal	%	69

Consider now this further compound.
query: Request: growth, test system UO-31 renal, entry O=C1Nc2c(ccc(Cl)c2Cl)/C1=C/c1ccc(F)cc1
result: 71.9

* * *

test system: SW-620 colon; test: NCI-60 one-dose screen, 48 h; conditions: 10 µM unless noted
About 83,000 compounds went through this panel and 20% of them were active in at least one assay; those are over-represented in the sample as a whole. Active and inactive are the calls of the source. How the source made its calls: active means growth percent below 10; inactive means the rest.
Please answer using one outcome listed in active, inactive

Field: example entries. Status: answers known.
compound	target-under-test	category-label
CC(=O)c1c[nH]c2ccc(-c3ccnc(Nc4ccc(NC(=O)c5cccc(F)c5)c(CN5CCOCC5)c4)n3)cc12	SW-620 colon	active
COc1ccc(/C=N/C2=C(C#N)C(c3ccccc3[N+](=O)[O-])c3ccc4ccccc4c3O2)cc1 (configuration not stated)	SW-620 colon	inactive
CC(=O)c1c(-c2ccc(OC(F)(F)F)cc2)nc2ccccn12	SW-620 colon	inactive
CC(=O)c1c[nH]c2ccc(-c3ccnc(Nc4ccc(NC(=O)C5CCCC5)c(CN5CCOCC5)c4)n3)cc12	SW-620 colon	active
C[C@]12C[C@H]1CC[C@]1(C)[C@@H]2CC[C@@]23C[C@H](CC[C@H]21)[C@@](O)(CO)C3	SW-620 colon	inactive
COc1ccccc1/C=C1\COc2ccc(-c3ccccc3)cc2C1=O	SW-620 colon	inactive

Consider now this further compound.
query: Kindly provide the recorded test outcome for the following compound: CCSc1ccc2c(c1)N(CCCN1CCN(C)CC1)c1ccccc1S2
result: inactive

* * *

system: UACC-62 melanoma; assay: NCI-60 one-dose screen, 48 h (100 = growth as untreated, 0 = no growth, -100 = all killed); details: 10 µM unless noted
The panel holds about 83,000 compounds, 20% with a hit somewhere; the sample as a whole holds those more often.
Form field: growth (one value per entry).
The answer is to be given in %; state only the numeric part.

For orientation, consider the following solved cases.
compound	unit-tag	growth
COC(=O)C(c1ccccc1)C(CC(=O)c1ccccc1)c1ccccc1 (stereo not given)	%	88.7
O=C(c1ccccc1)N1N=C(c2ccc(-n3ccc(C(F)(F)F)n3)cc2)CC1c1ccc[nH]1 (stereo not given)	%	89.6
COc1cc(NCC(C)(O)CN(CC(C)C)CC(C)C)c2nc(C)ccc2c1 (stereo not given)	%	68.3
COc1ccc(C(O)c2cc3c(N)c(C(=O)Nc4cccc(OC)c4)sc3nc2C)cc1 (stereo not given)	%	23.6
CN1CCN(c2cc(F)c(NC3=C(Cl)C(=O)c4ncccc4C3=O)c(F)c2)CC1	%	-45.6

query: Request: growth, test system UACC-62 melanoma, entry CCOc1cc(CNc2ccc(N3CCOCC3)c(C(=O)O)c2)ccc1OC
result: 90.3

query: Please give the result for Cc1[nH]n(-c2cccc(Cl)c2)c(=O)c1/C=C1\C=Nc2ccc(Br)cc21 too.
result: 37.4

query: Please give the result for CCc1nc(C)cn1C(=O)OCc1nc2nc(Cl)nc(N3CCOCC3)c2[nH]1 too.
result: -88.4

* * *

Form field: growth (one value per entry).
system: DU-145 prostate; assay: NCI-60 one-dose screen, 48 h (100 = growth as untreated, 0 = no growth, -100 = all killed); conditions: 10 µM unless noted
This is part of a sample that, as a whole, favours compounds with a hit. Of some 83,000 tested, about 20% had one in any assay.
The answer is to be given in %; state only the numeric part.

molecule	target-under-test	unit-tag	growth
Fc1ccccc1CSc1ncnc2nc[nH]c12	DU-145 prostate	%	120
COc1ccccc1C(C[N+](=O)[O-])c1c(-c2ccccc2)[nH]c2cc(C)ccc12 (centres undefined)	DU-145 prostate	%	101
Clc1ccc(N2N=C(c3cccc(Nc4ccncc4)c3)CC2c2ccc(Br)cc2)cc1 (centres undefined)	DU-145 prostate	%	24.8
Cc1ccc(C2C3CC4CCCCC4N3[C@@]3(C(=O)Nc4cc(Cl)ccc43)C2C(=O)c2nc3ccccc3[nH]2)cc1 (some centres undefined)	DU-145 prostate	%	64.3
COc1ccc2c(c1)c(CC(=O)NCCOCCOCC(=O)Nc1ccc(OC)c(C(N)=O)c1O)c(C)n2C(=O)c1ccc(Cl)cc1	DU-145 prostate	%	107

query: Which value of growth has been reported for Cn1c(=O)c2[nH]c(CCCc3nc4c([nH]3)c(=O)n(C)c(=O)n4C)nc2n(C)c1=O in the records?
result: 118

query: Please give the result for O=C(Nc1cccc(Cl)c1)c1cc(Cl)ccc1O too.
result: 24.1

query: Please give the result for CC(=O)c1c(C)[nH]c(-c2nc3ccc(N4CCN(C)CC4)cc3[nH]2)c1-c1ccccc1 too.
result: 59.7

query: Please give the result for FC(F)(F)c1cccc(Nc2ccccc2)c1 too.
result: 110

query: Please give the result for O=C(CNCCO)Nc1ccc2ncnc(Nc3ccc(OCc4cccc(F)c4)c(Cl)c3)c2c1 too.
result: 61.6

query: Please give the result for COc1ccc(-c2ncc(-c3ccccc3)[nH]2)cc1OC too.
result: 131

query: Please give the result for COc1ccc(/C=C2\COc3ccc(-c4ccccc4)cc3C2=O)cc1O too.
result: -2.34

query: Please give the result for COc1ccc(-n2cc(-c3cc(OC)c(OC)c(OC)c3)n(C(C)=O)c2=O)cc1 too.
result: 109

query: Please give the result for CC(C)C1C2=C(NCCN1C(=O)Cc1ccccc1)C(C)(C)N(Cc1ccccc1)C2=O (centres undefined) too.
result: 104

query: Please give the result for COc1ccc(C2=NN(C(C)=O)C(c3cn(Cc4ccc(Cl)cc4)c4ccccc34)C2)cc1 (centres undefined) too.
result: 97.4

query: Please give the result for CO[C@@H]1[C@H](N(C)C(=O)c2ccccc2)C[C@@H]2O[C@]1(C)n1c3ccccc3c3c4c(c5c6ccccc6n2c5c31)C(=O)NC4=O too.
result: 50.1

query: Please give the result for O=C(N/N=C/c1cccc(O)c1)c1ccccc1Nc1cccc(C(F)(F)F)c1 too.
result: 88.7

query: Please give the result for CCCCCCCCCCN=C(N)N=C(N)N too.
result: 79.1

query: Please give the result for Cc1cc2cc3cc(C)c(N)cc3[n+](C)c2cc1N too.
result: 19.1

query: Please give the result for C#CCn1cc(C=C2C(=O)NC(=S)NC2=O)c2cc(Cl)ccc21 too.
result: 3.03

query: Please give the result for CC(Oc1ccc(C(=O)NS(=O)(=O)C(C)(C)C)cc1C(F)(F)F)c1ccc(Oc2ccccc2)cn1 (centres undefined) too.
result: 97

query: Please give the result for Fc1cc(C2=NNC(c3ccc[nH]3)C2)ccc1-n1ccc(C(F)(F)F)n1 (centres undefined) too.
result: 82.8

query: Please give the result for Cc1cn(-c2cc(C(=O)Nc3cccc(C#Cc4cccc5[nH]nc(N)c45)c3)cc(C(F)(F)F)c2)cn1 too.
result: 72.5

query: Please give the result for O=S(=O)(NCCNc1nccc(-c2c(-c3ccc(F)c(O)c3)nc3occn23)n1)c1ccccc1 too.
result: 57.1
